Collected growth values appear next to each entry.
- Test system: KM12 colon
- protocolSummary: NCI-60 one-dose screen, 48 h (100 = growth as untreated, 0 = no growth, -100 = all killed)
- runParameters: 10 µM unless noted
About 83,000 compounds went through this panel and 20% of them were active in at least one assay; those are over-represented in the sample as a whole. Active and inactive are the calls of the source. The calls were made as follows: active = growth percent below 10; inactive = the rest. Where a SMILES comes first, the peptide text is derived from it. The star is where a group is joined. Trt = c1ccc(C(c2ccccc2)(c2ccccc2)*)cc1; Cbz = O=C(OCc1ccccc1)*

| compound | testSystem | growth |
| --- | --- | --- |
| CN1c2ccccc2C(C)(C)C12C=Cc1cc(O)ccc1O2 (stereo not given) | KM12 colon | 18.7% (inactive) |

Return reported growth; argument: CN(Cc1cnc2nc(N)nc(N)c2n1)c1ccc(C(=O)NC(CCC(=O)O)C(=O)O)cc1 (stereo not given)
32.4% (inactive)

Another compound: `COc1ccccc1/C=C\C(=O)c1ccccc1`
29.5% (inactive)

Next compound up: COC(=O)C(CSC(c1ccccc1)(c1ccccc1)c1ccccc1)NC(=O)C(CC(N)=O)NC(=O)OCc1ccccc1 (stereo not drawn) (Cbz-Asn-Cys(Trt)-OMe; configuration not given here)
33% (inactive)

Item: `S=C(N/N=C/c1ccccn1)Nc1ccccn1`
29.7% (inactive)

What about `Oc1c(Cl)c2ccccc2c2ccccc12` ?
107% (inactive)

Then this compound: `NC(=S)N/N=C/c1ccc(Cl)s1`
101% (inactive)

Also, `N#CSCc1ccc(CSC#N)c(Cl)c1` please.
69.3% (inactive)

What do we get for `NC(N)=N/N=C/c1ccc([N+](=O)[O-])o1` ?
82.3% (inactive)

What about this compound? `NC1=CC(=O)c2ccccc2C1=O`
79.3% (inactive)
